test: drug combination growth inhibition, ovarian cancer – cell-based, oncology-focused library, rucaparib conditional, profiling panel (AID 1508598); settings: patient-derived ovarian cancer cells, CellTiter-Glo viability, 144 h; at 0.00488 µM; OCI-C5x cells; without rucaparib; stronger effect = lower value
attribute measured: viability (%)

- compound: "O=C(CCCCCCC(=O)Nc1ccc([C@H]2O[C@@H](CSc3nc(-c4ccccc4)c(-c4ccccc4)o3)C[C@@H](c3ccc(CO)cc3)O2)cc1)NO"
  attribute measured: "viability"
  result units: "%"
  measurement: 132
- compound: "CC1COC2(CCN(c3nc(=O)c4cc(C(F)(F)F)cc([N+](=O)[O-])c4s3)CC2)O1 (centres undefined)"
  attribute measured: "viability"
  result units: "%"
  measurement: 119
- compound: "CN1CCN(c2nc(C3=C(c4c[nH]c5ccccc45)C(=O)NC3=O)c3ccccc3n2)CC1"
  attribute measured: "viability"
  result units: "%"
  measurement: 120
- compound: "O=C(Nc1ccc(OC(F)(F)F)cc1)c1sccc1NCc1ccnc2ccccc12"
  attribute measured: "viability"
  result units: "%"
  measurement: 105

====

assay: growth inhibition, single agent or in combination, cell-based, chromothripsis tumors, cisplatin or BGB combos (AID 1671449); settings: LFS_MB_P medulloblastoma cells, at 0.5 µM;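 also: cells exposed for 96 hours; 0% = vehicle DMSO and 100% = killing by high DMSO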
The source made the active and inactive calls. Cut-off read from the data, not from the text of the source: active = inhibition above about 80%; inactive = the rest.
Possible outcomes: true for active, false for inactive

- smiles notation: "CN(C)c1ccc(C(=O)NCCCCCCC(=O)NO)cc1"
  assigned category: "false"
- smiles notation: "O=c1[nH]c([C@@H]2CCCN2)nc2c1oc1ccc(Cl)cc12"
  assigned category: "false"
- smiles notation: "O=C(/C=C/c1ccc(CN(CCO)CCc2c[nH]c3ccccc23)cc1)NO"
  assigned category: "false"
- smiles notation: "CN[C@@H]1CN(c2ccc3c(=O)c(C(=O)O)cn(-c4nccs4)c3n2)C[C@H]1OC"
  assigned category: "false"
- smiles notation: "COc1ccc(-n2c(SCCCN3C(=O)c4cccc5cccc(c45)C3=O)nnc2-c2ccncc2)cc1"
  assigned category: "false"
- smiles notation: "Cc1ccc2nc(NCCN)c3ncc(C)n3c2c1"
  assigned category: "false"
- smiles notation: "CN(C)CCN1C(=O)c2cccc3cc(N)cc(c23)C1=O"
  assigned category: "false"
- smiles notation: "O=c1cc(N2CCOCC2)oc2c1ccc1ccccc12"
  assigned category: "false"
- smiles notation: "CC(=O)Nc1ccc(C(=O)Nc2ccccc2N)cc1"
  assigned category: "true"
- smiles notation: "Nc1ncnc2c1c(-c1cnc3[nH]ccc3c1)nn2C1CCCC1"
  assigned category: "false"
- smiles notation: "CN(C)C/C=C/C(=O)Nc1ccc(C(=O)Nc2cccc(Nc3ncc(Cl)c(-c4c[nH]c5ccccc45)n3)c2)cc1"
  assigned category: "false"

====

experiment: viability loss with induced miR-34 in A549 – imaging, A549 dox-inducible miR-34, nuclei and caspase counts, primary screen (AID 1347080); conditions: A549 miR-34 inducible, Hoechst nuclei count, 48 h; measured here: total cells with miR-34 induction; stronger effect = lower value
Overview of recorded cell count for various compounds

- compound: "CC(=O)O[C@@]12CO[C@@H]1C[C@H](O)[C@@]1(C)C(=O)[C@H](OC(=O)O)C3=C(C)[C@@H](OC(=O)[C@H](O)[C@@H](NC(=O)c4ccccc4)c4ccccc4)C[C@@](O)([C@@H](OC(=O)c4ccccc4)C12)C3(C)C (stereo not given in full)"
  cell count: 1340
- compound: "C#C[C@]1(O)CC[C@H]2[C@@H]3CCC4=CC(=O)CCC4[C@H]3CC[C@@]21CC (stereo not given in full)"
  cell count: 6080
- compound: "Cc1c(NC(=O)OCC2COCCN2)cn2ncnc(Nc3ccc4c(cnn4Cc4cccc(F)c4)c3)c12 (stereo not given)"
  cell count: 4510
- compound: "CCCCCCCCCCCCCCCCCCCCCC(=O)NCCS(=O)(=O)O"
  cell count: 5140
- compound: "O=P(O)(O)O[C@@H]1[C@H](O)[C@H](O)[C@@H](OP(=O)(O)O)[C@H](OP(=O)(O)O)[C@H]1O"
  cell count: 5940
- compound: "OC[C@H]1O[C@@H](n2cnc3c(NC4CCCC4)ncnc32)[C@H](O)[C@@H]1O"
  cell count: 9040
- compound: "CC(C)(C)OC(=O)N1CCC(OCc2nc(-c3ccncc3)no2)CC1"
  cell count: 5600
- compound: "CCCCCCCCCCCCCCCCCC(=O)NCCO"
  cell count: 6030
- compound: "O=C(O)CCC/C=C\\C[C@@H]1[C@@H](/C=C/[C@H](O)CCc2ccccc2)[C@H](O)C[C@@H]1O"
  cell count: 5340
- compound: "CC[C@H](CO)Nc1nc(NCc2ccccc2)c2ncn(C(C)C)c2n1"
  cell count: 983
- compound: "O=C(Nc1ccc(C(F)(F)F)cn1)N1CCN(c2ncccc2C(F)(F)F)CC1"
  cell count: 6230
- compound: "CCCCCCCCCCCCCCCCOC[C@@H](CO)SC(C)=O"
  cell count: 5400
- compound: "Cc1cc(OCc2nnc(SC3CCCC3)n2-c2cccnc2)ccc1-c1ccc(S(C)(=O)=O)cc1"
  cell count: 1100
- compound: "CC/C=C\\C/C=C\\C/C=C\\C/C=C\\CCCCC(=O)OCC"
  cell count: 5830
- compound: "CCN1/C(=C/C(C)=O)Sc2ccc(OC)cc21"
  cell count: 7360
- compound: "OC[C@H]1O[C@@H](n2cnc3c(NC4CCCC4)nc(Cl)nc32)[C@H](O)[C@@H]1O"
  cell count: 8890
- compound: "CCCCC/C=C\\C/C=C\\C/C=C\\C/C=C\\CCCC(=O)OCc1ccsc1"
  cell count: 6270
- compound: "COc1ccc2c(c1)c(CC(=O)Nc1cccnc1)c(C)n2C(=O)c1ccc(Cl)cc1"
  cell count: 5760
- compound: "COc1cc([C@@H]2c3cc4c(cc3C(OC3OC5COC(C)OC5C(O)C3O)C3COC(=O)[C@@H]32)OCO4)cc(OC)c1O (stereo not given in full)"
  cell count: 4900
- compound: "O=C(NOCC(O)CO)c1cc(Br)c(F)c(F)c1Nc1ccc(I)cc1F (stereo not given)"
  cell count: 3740
- compound: "CN=C1C=C2C(=NC=NC2=Nc2cccc(Br)c2)C=N1"
  cell count: 942
- compound: "COc1cc2c(Oc3ccc4[nH]c(C)cc4c3F)ncnc2cc1OCCCN1CCCC1"
  cell count: 3660
- compound: "CC1CCC(C(=O)N(c2cc(C#CC(C)(C)C)sc2C(=O)O)C2CCC(O)CC2)CC1 (stereo not given)"
  cell count: 7690
- compound: "COc1ccc(C[C@H](N)C(=O)N[C@H]2[C@@H](O)[C@H](n3cnc4c(N(C)C)ncnc43)O[C@@H]2O)cc1"
  cell count: 1130
- compound: "Cc1cc(C)c(S(=O)(=O)Nc2ccccc2C(F)(F)F)c(C)c1"
  cell count: 6450
- compound: "CC#CCC(C)[C@H](O)/C=C/[C@@H]1[C@H]2C/C(=C\\CCCC(=O)O)C[C@H]2C[C@H]1O (stereo not given in full)"
  cell count: 5570
- compound: "CCc1c(OCCCCCC(C)(C)c2nn[nH]n2)cc(O)cc1C(C)=O"
  cell count: 6030
- compound: "C#CCCC[C@@H](O)CCCCCCCCCCC(=O)O"
  cell count: 5310
- compound: "CCCCC[C@H](O)/C=C/[C@H]1C(=O)C[C@H](O)[C@@H]1C/C=C\\CCCC(=O)OC"
  cell count: 5010
- compound: "COc1ccc(-n2c(SCCCN3C(=O)c4cccc5cccc(c45)C3=O)nnc2-c2ccncc2)cc1"
  cell count: 6580
- compound: "Ic1cc(-c2ccccc2)ncn1"
  cell count: 8200
- compound: "CSc1cc2c(cc1C(F)(F)F)N(C(=O)Nc1cccnc1)CC2"
  cell count: 9460
- compound: "Clc1cccc2c1CN(C1=NCCN1)C2"
  cell count: 9080
- compound: "OC[C@H]1NC[C@H](O)[C@@H](O)[C@@H]1O"
  cell count: 5000
- compound: "COC(=O)[C@H]1C2C[C@H]3c4[nH]c5ccccc5c4CCN3C[C@H]2CC[C@@H]1O (stereo not given in full)"
  cell count: 8540
- compound: "CCCCCCCCCCCCC/C=C/[C@@H](O)[C@H](COP(=O)(O)O)NC(=O)CCCCCCC"
  cell count: 5610
- compound: "CCCCC/C=C\\C=C1\\C(=O)CC[C@@H]1C/C=C\\CCCC(=O)O"
  cell count: 5640
- compound: "COc1ccc(OC)c2c(=S)c3ccccc3[nH]c12"
  cell count: 8120
- compound: "CCCN(C/C=C/I)C1CCc2cccc(O)c2C1 (stereo not given)"
  cell count: 8040
- compound: "c1ccc([B-]2(c3ccccc3)[NH2+]CCO2)cc1"
  cell count: 3950
